- Test system: Plasmodium berghei
- protocol_notes: Luciferase/luciferin-expressing antifolate-resistant parasites were used to infect a culture of HepG2 cells that were pre-incubated with compounds. Infected hepatocytes emit light due to the luciferase reaction. Assay results are presented as the percent inhibition of light emission compared to control. […]
- Assay type: functional
- condition_description: sporozoite, PBLUC_HILL_SLOPE 0.811, PBLUC_R_SQUARED 0.754, read-out: LUCIFERASE INFECTION ASSAY - IC50
quantity_measured: IC50 (nM)
Reply with just the number (in nM).

Reported IC50, molecule c1ccc2sc(-c3nc4ccccc4s3)nc2c1 : ____ 1160

---

- Test system: Plasmodium berghei
- protocol_notes: Luciferase/luciferin-expressing antifolate-resistant parasites were used to infect a culture of HepG2 cells that were pre-incubated with compounds. Infected hepatocytes emit light due to the luciferase reaction. Assay results are presented as the percent inhibition of light emission compared to control. […]
- Type: functional
- condition_description: sporozoite, FFLUC_HILL_SLOPE 93.6, FFLUC_R_SQUARED 0.0881, read-out: LUCIFERASE INFECTION ASSAY - IC50
quantity_measured: IC50

Reported IC50, compound CC(C)(C)c1ccc(CSc2nnc(-c3ccco3)n2-c2ccc(OCc3ccccc3)cc2)cc1 : ____ > 6.66 µM

---

- Test system: Plasmodium berghei
- protocol_notes: Luciferase/luciferin-expressing antifolate-resistant parasites were used to infect a culture of HepG2 cells that were pre-incubated with compounds. Infected hepatocytes emit light due to the luciferase reaction. Assay results are presented as the percent inhibition of light emission compared to control. […]
- Format: functional
- condition_description: sporozoite, HEPG2TOX_HILL_SLOPE 1.42, HEPG2TOX_R_SQUARED 0.919, PBLUC_HILL_SLOPE 4.98, PBLUC_R_SQUARED 0.845, read-out: LUCIFERASE INFECTION ASSAY - IC50
quantity_measured: IC50 (nM)
Reply with just the number (in nM).

Reported IC50, molecule CCc1ccc(C(=O)Nc2cccc(NC(=O)c3ccccc3C)c2)cc1 : ____ 735

---

- Tested on: Plasmodium berghei
- protocol_notes: Luciferase/luciferin-expressing antifolate-resistant parasites were used to infect a culture of HepG2 cells that were pre-incubated with compounds. Infected hepatocytes emit light due to the luciferase reaction. Assay results are presented as the percent inhibition of light emission compared to control. […]
- Format: functional
- condition_description: sporozoite, PBLUC_HILL_SLOPE 26.7, PBLUC_R_SQUARED 0.676, read-out: LUCIFERASE INFECTION ASSAY - IC50
quantity_measured: IC50 (µM)
Reply with just the number (in µM).

Reported IC50, compound Cc1nc(C(=O)N2CCc3c(c(C(=O)NCc4ccccn4)nn3CCc3ccccc3)C2)cs1 : ____ 2.27

---

- Tested on: Plasmodium berghei
- protocol_notes: Luciferase/luciferin-expressing antifolate-resistant parasites were used to infect a culture of HepG2 cells that were pre-incubated with compounds. Infected hepatocytes emit light due to the luciferase reaction. Assay results are presented as the percent inhibition of light emission compared to control. […]
- Format: functional
- condition_description: sporozoite, FFLUC_HILL_SLOPE 79.3, FFLUC_R_SQUARED 0.555, read-out: LUCIFERASE INFECTION ASSAY - IC50
quantity_measured: IC50

Reported IC50, compound O=S(=O)(c1ccc(-c2cc(-c3ccccc3Cl)c3cc(Cl)ccc3n2)cc1)N1CCCCC1 : ____ > 10 µM

---

- Test system: Plasmodium berghei
- protocol_notes: Luciferase/luciferin-expressing antifolate-resistant parasites were used to infect a culture of HepG2 cells that were pre-incubated with compounds. Infected hepatocytes emit light due to the luciferase reaction. Assay results are presented as the percent inhibition of light emission compared to control. […]
- Type: functional
- condition_description: sporozoite, read-out: LUCIFERASE INFECTION ASSAY - IC90
The following molecules are listed with their measured IC90 values.

Illustrative cases are given below, each with its answer.
[
  {
    "molecule": "Cc1ccc(C(=O)Nc2cccc(CNC(C)c3ccc(F)cc3F)c2)cc1 (stereo not given)",
    "IC90": "> 10 µM"
  },
  {
    "molecule": "COc1ccccc1CNC(=O)N/C=C/c1ccccc1Cl",
    "IC90": "> 10.4 µM"
  },
  {
    "molecule": "C/C(c1cccs1)=[N+](/[O-])C(C)/C(=N/O)c1ccco1 (stereo not given)",
    "IC90": "> 10 µM"
  },
  {
    "molecule": "Cc1cccc(C)c1N(C(=O)CC(c1ccccc1)c1ccccc1)c1nc2ccccc2s1",
    "IC90": "> 10 µM"
  },
  {
    "molecule": "CC(Sc1nc(-c2ccccc2)c(-c2ccccc2)o1)C(=O)NCc1ccco1 (stereo not given)",
    "IC90": "8.62 µM"
  }
]

Moving on to another molecule below.
Reported IC90, molecule Cc1ccc(/N=c2\scc(-c3cccc(C(F)(F)F)c3)n2/N=C/c2ccc3ncccc3c2)c(C)c1 : ____ > 10 µM

---

- System: Plasmodium berghei
- protocol_notes: Luciferase/luciferin-expressing antifolate-resistant parasites were used to infect a culture of HepG2 cells that were pre-incubated with compounds. Infected hepatocytes emit light due to the luciferase reaction. Assay results are presented as the percent inhibition of light emission compared to control. […]
- Format: functional
- condition_description: sporozoite, PBLUC_HILL_SLOPE 2.17, PBLUC_R_SQUARED 0.86, read-out: LUCIFERASE INFECTION ASSAY - IC50
quantity_measured: IC50 (nM)
Reply with just the number (in nM).

Reported IC50, molecule c1ccc(NCc2ccc(-c3cn4c(-c5cccnc5)cnc4cn3)cc2)cc1 : ____ 2660

---

- Tested on: Plasmodium berghei
- protocol_notes: Luciferase/luciferin-expressing antifolate-resistant parasites were used to infect a culture of HepG2 cells that were pre-incubated with compounds. Infected hepatocytes emit light due to the luciferase reaction. Assay results are presented as the percent inhibition of light emission compared to control. […]
- Type: functional
- condition_description: sporozoite, read-out: LUCIFERASE INFECTION ASSAY - IC90
quantity_measured: IC90 (µM)
Reply with just the number (in µM).

Illustrative cases are given below, each with its answer.
[
  {
    "given_smiles": "Fc1cccc(-c2cc3c(Nc4ccccn4)nccc3[nH]2)c1",
    "quantity_measured": "IC90",
    "value_units": "µM",
    "experimental_value": 9.13
  },
  {
    "given_smiles": "CCN1/C(=C\\C(=O)c2ccccc2Oc2ccccc2)C(C)(C)c2c1ccc1ccccc21",
    "quantity_measured": "IC90",
    "value_units": "µM",
    "experimental_value": 8.43
  },
  {
    "given_smiles": "CC(=O)c1ccccc1OCCOC(=O)/C(C#N)=C/c1cc(C)n(CCC(C)C)c1C",
    "quantity_measured": "IC90",
    "value_units": "µM",
    "experimental_value": 1.72
  },
  {
    "given_smiles": "O=C1c2ccccc2C(=Cc2ccc(C(F)(F)F)cc2)c2ccccc21",
    "quantity_measured": "IC90",
    "value_units": "µM",
    "experimental_value": 4.1
  }
]

Moving on to another compound below.
Reported IC90, compound CCOc1cc(/C=C/C(=O)c2ccc(C)cc2)cc(Br)c1OCC(=O)N(C)C : ____ 3.89

---

- Tested on: Plasmodium berghei
- protocol_notes: Luciferase/luciferin-expressing antifolate-resistant parasites were used to infect a culture of HepG2 cells that were pre-incubated with compounds. Infected hepatocytes emit light due to the luciferase reaction. Assay results are presented as the percent inhibition of light emission compared to control. […]
- Format: functional
- condition_description: sporozoite, PBLUC_HILL_SLOPE 1.9, PBLUC_R_SQUARED 0.397, read-out: LUCIFERASE INFECTION ASSAY - IC50
quantity_measured: IC50 (µM)
Reply with just the number (in µM).

Reported IC50, compound COc1ccc2nc(C)cc(NC(C)CCc3ccccc3)c2c1 (stereo unspecified) : ____ 6.04

---

- Tested on: Plasmodium berghei
- protocol_notes: Luciferase/luciferin-expressing antifolate-resistant parasites were used to infect a culture of HepG2 cells that were pre-incubated with compounds. Infected hepatocytes emit light due to the luciferase reaction. Assay results are presented as the percent inhibition of light emission compared to control. […]
- Format: functional
- condition_description: sporozoite, FFLUC_HILL_SLOPE 13, FFLUC_R_SQUARED 0.522, HEPG2TOX_HILL_SLOPE 2.51, HEPG2TOX_R_SQUARED 0.97, PBLUC_HILL_SLOPE 14.6, PBLUC_R_SQUARED 0.431, read-out: LUCIFERASE INFECTION ASSAY - IC50
quantity_measured: IC50 (nM)
Reply with just the number (in nM).

Reported IC50, compound C=C1N(C)c2ccc(NC(=O)c3ccccc3)cc2C1(C)C : ____ 2980

---

- System: Plasmodium berghei
- protocol_notes: Luciferase/luciferin-expressing antifolate-resistant parasites were used to infect a culture of HepG2 cells that were pre-incubated with compounds. Infected hepatocytes emit light due to the luciferase reaction. Assay results are presented as the percent inhibition of light emission compared to control. […]
- Type: functional
- condition_description: sporozoite, FFLUC_HILL_SLOPE 115, FFLUC_R_SQUARED 0.0591, PBLUC_HILL_SLOPE 174, PBLUC_R_SQUARED 0.383, read-out: LUCIFERASE INFECTION ASSAY - IC50
quantity_measured: pIC50
Scale for pIC50: -log10 of concentration given in mol/L; no unit attached.

Reported pIC50, compound O=C(/C=C/c1ccc(-n2cncn2)c(F)c1)c1cccc(OC(F)F)c1 : ____ 5.27
